- Subject of test: 26S proteasome non-ATPase regulatory subunit 14 (Homo sapiens)
- Sequence (O00487 whole entry): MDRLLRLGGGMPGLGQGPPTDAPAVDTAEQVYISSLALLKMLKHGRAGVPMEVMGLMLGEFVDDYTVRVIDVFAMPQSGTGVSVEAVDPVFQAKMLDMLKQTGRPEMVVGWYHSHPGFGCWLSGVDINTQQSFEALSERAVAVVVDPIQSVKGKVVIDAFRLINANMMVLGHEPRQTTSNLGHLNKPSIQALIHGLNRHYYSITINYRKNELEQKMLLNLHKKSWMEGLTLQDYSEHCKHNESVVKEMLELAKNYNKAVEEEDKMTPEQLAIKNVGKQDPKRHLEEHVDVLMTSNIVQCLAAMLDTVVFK
- Assay info: inhibition of proteasome subunit RPN11 – biochemical, fluorescence polarization, uHTS hits, confirmation (AID 602368)
- Format: functional
Calls of active or inactive are those of the source. How the calls were made is not given here.
Parameter: IC50. Scope: all listed entries.

// worked examples, IC50 included
{"Compound": "CC1=CC2=NC(=O)/C(=C\\c3c(C)[nH]c4ccc(C)cc34)C(=N)N2O1", "IC50": "33.3 µM (active)"}
{"Compound": "Cc1ccc(NC(=O)C(C)SCc2nc(O)c3c4c(sc3n2)CCCC4)nc1 (centres undefined)", "IC50": "21.9 µM (active)"}
{"Compound": "Cc1occc1C(=O)/C(C#N)=C/c1ccc(O)c(Br)c1", "IC50": "9.83 µM (active)"}

# context switch: different compound, same IC50
Could you share which IC50 value was measured for `Cc1cc(/C=C2\SC(=S)NC2=O)c(C)n1C` ?
16.5 µM (active)
